System: P. pseudoalcaligenes
Type: cell-based, Pseudomonas pseudoalcaligenes
PARTICULARS: 18 h
Where a SMILES comes first, the peptide text is derived from it. [ ]: non-standard residue; d: D form. The star is where a group is joined. d(aIle) = CC[C@H](C)[C@@H](N)C(=O)O; dOrn = NCCC[C@@H](N)C(=O)O; dDab = NCC[C@@H](N)C(=O)O; Octanoyl = CCCCCCCC(=O)*; Orn = NCCC[C@H](N)C(=O)O; Dab = NCC[C@H](N)C(=O)O
Form field: Peptide MIC (one value per entry).
# unit: μg mL^–1 | format: bare number

Recorded results for 3 compounds are shown here.
# COMPOUND, UNIT NAME, Peptide MIC
measured = [
    ("CCCCCCCC(=O)N[C@@H](C(=O)N[C@H](CCN)C(=O)NCC(=O)N[C@H](CO)C(=O)N[C@H](Cc1c[nH]c2ccccc12)C(=O)N[C@@H](CO)C(=O)N[C@@H](CCN)C(=O)N[C@H](CCN)C(=O)N[C@@H](Cc1ccccc1)C(=O)N[C@@H](CCC(=O)O)C(=O)N[C@H](C(=O)N[C@@H](C(=O)N[C@@H](C)C(=O)O)C(C)C)C(C)C)C(C)C [Peptide 2, Oct-TriA2] (Octanoyl-[dV][dDab]G[dS][dW]S[Dab][dDab]FEV[dV]A-OH)", "μg mL^–1", 50),
    ("CCCCCCCC(=O)N[C@@H](C(=O)N[C@H](CCCN)C(=O)NCC(=O)N[C@H](CO)C(=O)N[C@H](Cc1c[nH]c2ccccc12)C(=O)N[C@@H](CO)C(=O)N[C@@H](CCCN)C(=O)N[C@H](CCCN)C(=O)N[C@@H](Cc1ccccc1)C(=O)N[C@@H](CCC(=O)O)C(=O)N[C@H](C(=O)N[C@@H](C(=O)N[C@@H](C)C(=O)O)C(C)C)C(C)C)C(C)C [Peptide 7, Oct-TriA2 (2,8-D-Orn, 7-Orn)] (Octanoyl-[dV][dOrn]G[dS][dW]S[Orn][dOrn]FEV[dV]A-OH)", "μg mL^–1", 6.25),
    ("CCCCCCCC(=O)N[C@@H](C(=O)N[C@H](CCCN)C(=O)NCC(=O)N[C@H](CO)C(=O)N[C@H](Cc1c[nH]c2ccccc12)C(=O)N[C@@H](CO)C(=O)N[C@@H](CCCN)C(=O)N[C@H](CCCN)C(=O)N[C@@H](Cc1ccccc1)C(=O)N[C@@H](CCC(=O)O)C(=O)N[C@H](C(=O)N[C@@H](C(=O)N[C@@H](C)C(=O)O)[C@@H](C)CC)C(C)C)C(C)C [Peptide 5, Oct-TriA1 (2,8-D-Orn, 7-Orn)] (Octanoyl-[dV][dOrn]G[dS][dW]S[Orn][dOrn]FEV[d(aIle)]A-OH)", "μg mL^–1", 50),
]

We now examine a further compound.
Case CCCCCCCC(=O)N[C@@H](C(=O)N[C@H](CCCN)C(=O)NCC(=O)N[C@H](CO)C(=O)N[C@H](Cc1c[nH]c2ccccc12)C(=O)N[C@@H](CO)C(=O)N[C@@H](CCCN)C(=O)N[C@H](CCN)C(=O)N[C@@H](Cc1ccccc1)C(=O)N[C@@H](CCC(=O)O)C(=O)N[C@H](C(=O)N[C@@H](C(=O)N[C@@H](C)C(=O)O)[C@@H](C)CC)C(C)C)C(C)C [Peptide 3, Oct-TriA1 (2-D-Orn, 7-Orn)] (Octanoyl-[dV][dOrn]G[dS][dW]S[Orn][dDab]FEV[d(aIle)]A-OH) , P. pseudoalcaligenes, Peptide MIC recorded as 12.5
